Values from PubChem BioAssay (NCI)

# Test system: NCI-H23 lung
# assaySummary: NCI tumour cell line growth inhibition, 48 h; in the data active means GI50 below about 0.43 µM; inactive means the rest
Assign a class; possible classes are true (1) for active, false (0) for inactive

Can you look up the reported call for "ClC1=C(Cl)C(Cl)=C(Cl)C1=Cc1ccc(Cl)cc1Cl" for me?
true (1)

Can you look up the reported call for "CC(=O)[CH-]C(=O)c1ccccc1.CC(=O)[CH-]C(=O)c1ccccc1.CC12CC3(C)CC(C)(C1)CC([O-])(C2)C3.CC[O-].[Ti+4]" for me?
false (0)

Can you look up the reported call for "CO[C@H]1/C=C/C[C@H](C)[C@@H](C)S(=O)(=O)NC(=O)c2ccc3c(c2)N(C[C@@H]2CC[C@H]21)C[C@@]1(CCCc2cc(Cl)ccc21)CO3" for me?
false (0)

Can you look up the reported call for "Cc1ccc(C(=O)Nc2ccccc2C(=O)N/N=C(\c2ccccc2)c2ccccn2)cc1" for me?
false (0)

Can you look up the reported call for "CC(C)[C@H](O)C(=O)N[C@H]1Cc2ccc3c(c2)[C@]24C5=C(N=C(O5)[C@H](C(C)C)NC1=O)c1nc(Cl)c(o1)-c1c(Cl)[nH]c5cccc(c15)-c1cccc2c1N[C@H]4O3" for me?
true (1)

Can you look up the reported call for "CCOC(=O)c1cn2ncnc(Oc3ccc(NC(=O)NCCN(CC)CC)c(Cl)c3)c2c1C" for me?
false (0)

Can you look up the reported call for "COC(=O)C1=C2CO[C@@H]3C[C@H]4C(C)(C)CCC[C@]4(C)C(=CC1)[C@]23C" for me?
false (0)

###

# Test system: BT-549 breast
# assaySummary: NCI tumour cell line growth inhibition, 48 h
For each entry below, report its TGI value.

I would be grateful if you could share the reported TGI for "CCN(CC)CCNC(=O)c1cc2cc(NC(=O)c3cc4cc(NC(=O)c5cc6cc([N+](=O)[O-])ccc6[nH]5)ccc4[nH]3)ccc2[nH]1" .
> 100 µM

I would be grateful if you could share the reported TGI for "O=C1c2c(O)cccc2C(C(=O)CCCC(=O)C2c3cccc(O)c3C(=O)c3c(O)cccc32)c2cccc(O)c21" .
4.74 µM

I would be grateful if you could share the reported TGI for O=C(O)C1Cc2ccccc2OC1=O (configuration not stated) .
> 100 µM

I would be grateful if you could share the reported TGI for "CCOC(CN(C)C(=O)OCC(Cl)(Cl)Cl)OCC" .
> 100 µM

I would be grateful if you could share the reported TGI for CCCCCCCCC[C@@H]1C[C@@H]2CCC3C(C(=O)OCCCCNC(=O)OCc4ccccc4)=C(C)NC(=N1)N32 (some centres not stated) .
12.6 µM

I would be grateful if you could share the reported TGI for "Nc1n[n+]([O-])c2cnccc2[n+]1[O-]" .
> 100 µM

I would be grateful if you could share the reported TGI for OC(C1CCCC1=N/N=C1/CCCC1C(O)(C(F)(F)Cl)C(F)(F)Cl)(C(F)(F)Cl)C(F)(F)Cl (configuration not stated) .
> 10 µM

###

For each entry below, report its TGI value.
# System: A498 renal
# assaySummary: NCI tumour cell line growth inhibition, 48 h

I would be grateful if you could share the reported TGI for CNC(=O)C(NC(=O)[C@H](CC(C)C)NC(=O)[C@@H](S)CCN1C(=O)N(C)C(C)(C)C1=O)C(C)(C)C (some centres not stated) .
> 100 µM

I would be grateful if you could share the reported TGI for CC[S+](C)c1ccc(-c2c3nc(c(-c4ccc([S+](C)CC)cc4)c4ccc([nH]4)c(-c4ccc([S+](C)CC)cc4)c4nc(c(-c5ccc([S+](C)CC)cc5)c5ccc2[nH]5)C=C4)C=C3)cc1 (configuration not stated) .
> 100 µM

I would be grateful if you could share the reported TGI for COC(=O)C(C(=O)C(=O)Nc1ccc(C)cc1C)c1nc2ccc([N+](=O)[O-])cc2[nH]c1=O (configuration not stated) .
> 100 µM

I would be grateful if you could share the reported TGI for CC1CCC(C#N)(NOC2=NCCN2)CC1 (configuration not stated) .
> 100 µM

I would be grateful if you could share the reported TGI for "Cc1sc2c(c1C)C(c1ccc(Cl)cc1)=N[C@@H](CC(=O)Nc1ccc(O)cc1)c1nnc(C)n1-2" .
2.48 µM

I would be grateful if you could share the reported TGI for "CN(C)CCN1C(=O)c2cccc3c(-c4ccc5ncn(C6CCCCC6)c5c4)ccc(c23)C1=O" .
5.1 µM

I would be grateful if you could share the reported TGI for "Oc1cccc2nc3cc(CN4CCOCC4)c(CN4CCOCC4)cc3nc12" .
> 100 µM

###

For each entry below, report its TGI value.
# Test system: DU-145 prostate
# assaySummary: NCI tumour cell line growth inhibition, 48 h
Reply numerically in µM, unit not repeated.

Observed TGI on DU-145 prostate for "CC[C@@]1(O)C(=O)OCc2c1cc1n(c2=O)Cc2c-1nc1ccccc1c2/C=N\NC(=O)C(N)=O" , please.
10.9

Observed TGI on DU-145 prostate for CC1(C)CC(O)CCCCCCOc2c(CN)cccc2NC(=O)c2nc(cnc2N)-c2ccc(cc2)S1(=O)=O (centres undefined) , please.
2.07

Observed TGI on DU-145 prostate for "CN(C)Cc1cc(C(=O)/C=C/c2c(F)cccc2Cl)cc(CN(C)C)c1O" , please.
21.3

Observed TGI on DU-145 prostate for "CCN1CCN(c2nc(C)cc(N(CCCNc3ccnc4cc(Cl)ccc34)Cc3ccco3)n2)CC1" , please.
19.7

###

For each entry below, report its TGI value.
# Tested on: 786-0 renal
# assaySummary: NCI tumour cell line growth inhibition, 48 h

Observed TGI on 786-0 renal for "O=C(Cc1nc2ccccc2s1)C(=O)Nc1ccc(Cl)cc1Cl" , please.
> 100 µM

Observed TGI on 786-0 renal for "Cc1ccc(C(=O)Nc2ccccc2C(=O)N/N=C(\c2ccccc2)c2ccccn2)cc1" , please.
> 100 µM

Observed TGI on 786-0 renal for "C[N+](C)(N)Cc1csc(-c2ccc(Cl)cc2)n1" , please.
> 100 µM

Observed TGI on 786-0 renal for "C[C@@]1(CBr)C[C@@](C)(/C=C/Cl)[C@@H](Cl)C[C@H]1Cl" , please.
27 µM

Observed TGI on 786-0 renal for CC1(C)CC(O)CCCCCCOc2c(CN)cccc2NC(=O)c2nc(cnc2N)-c2ccc(cc2)S1(=O)=O (centres undefined) , please.
1.97 µM

Observed TGI on 786-0 renal for CC(C)c1ccc(O)c(O)c(=O)c1 (tested in a mixture with another compound) , please.
> 100 µM

Observed TGI on 786-0 renal for "CC(=O)[CH-]C(=O)c1ccccc1.CC(=O)[CH-]C(=O)c1ccccc1.CC12CC3(C)CC(C)(C1)CC([O-])(C2)C3.CC[O-].[Ti+4]" , please.
> 100 µM

Observed TGI on 786-0 renal for "CCOc1ccc(-n2c(=O)n3c(Nc4ccc(Cl)cc4)nc4c(c(=O)n(C)c(=O)n4C)n3c2=O)cc1" , please.
> 100 µM

Observed TGI on 786-0 renal for "Cc1cc2nc(NS(=O)(=O)c3cc(C)c(Cl)cc3S)[nH]c2cc1C" , please.
> 100 µM

###

# System: HCT-15 colon
# assaySummary: NCI tumour cell line growth inhibition, 48 h
readoutType: TGI

I would be grateful if you could share the reported TGI for "Cc1cc2nc(NS(=O)(=O)c3cc(C)c(Cl)cc3S)[nH]c2cc1C" .
> 100 µM

I would be grateful if you could share the reported TGI for "Cc1cc(Cl)ccc1Nc1nc(C(F)(F)F)ccc1C(=O)N/N=C/c1ccc(N(C)C)cc1" .
> 100 µM

I would be grateful if you could share the reported TGI for "c1cc(-c2cnn3nc(N4CCOCC4)ccc23)nc(NC2CC2)n1" .
> 25 µM

I would be grateful if you could share the reported TGI for "CC(C)[C@H](O)C(=O)N[C@H]1Cc2ccc3c(c2)[C@]24C5=C(N=C(O5)[C@H](C(C)C)NC1=O)c1nc(Cl)c(o1)-c1c(Cl)[nH]c5cccc(c15)-c1cccc2c1N[C@H]4O3" .
> 10 µM

I would be grateful if you could share the reported TGI for "COC(=O)Nc1nc2ccc(NS(=O)(=O)c3ccc(F)cc3)cc2[nH]1" .
> 100 µM

I would be grateful if you could share the reported TGI for "OCCCCC#Cc1ccccc1C#Cc1cccs1" .
26.5 µM

I would be grateful if you could share the reported TGI for CC1=NN(C(=O)c2ccccc2)C(=O)C1N=Nc1ccccc1C(=O)O (stereo not drawn) .
> 100 µM

I would be grateful if you could share the reported TGI for CCCCCCCCCCOC1C(C(C)OCCCN(C)C)OC2OC3(CCCCC3)OC21 (stereo not drawn) .
17.5 µM

I would be grateful if you could share the reported TGI for "COc1cc(C(=O)/C=C/c2c(-c3cccs3)nc3ccccn23)cc(OC)c1OC" .
5.31 µM

I would be grateful if you could share the reported TGI for CC1CCC(C#N)(NOC2=NCCN2)CC1 (stereo not drawn) .
> 100 µM

I would be grateful if you could share the reported TGI for "CO[C@H]1/C=C/C[C@H](C)[C@@H](C)S(=O)(=O)NC(=O)c2ccc3c(c2)N(C[C@@H]2CC[C@H]21)C[C@@]1(CCCc2cc(Cl)ccc21)CO3" .
8.43 µM

I would be grateful if you could share the reported TGI for "C[n+]1c(-c2ccc(/C=N/Nc3n[nH]c(=S)n3N/N=C/c3ccc(-c4cn5ccccc5[n+]4C)cc3)cc2)cn2ccccc21" .
> 100 µM

I would be grateful if you could share the reported TGI for "CCN1CCN(c2cc(C)nc(NCc3cc(Nc4ccnc5cc(Cl)ccc45)ccc3F)n2)CC1" .
11.7 µM

I would be grateful if you could share the reported TGI for "O=C1/C(=C/c2ccc(C(F)(F)F)cc2)COc2ccc(O)cc21" .
3.47 µM

I would be grateful if you could share the reported TGI for "CCN1CCN(c2nc(C)cc(N(CCCNc3ccnc4cc(Cl)ccc34)Cc3ccco3)n2)CC1" .
11.6 µM

I would be grateful if you could share the reported TGI for "Cn1c2cc(Cl)ccc2c2ccc3c(c21)C(=O)C=CC3=O" .
> 57.5 µM

I would be grateful if you could share the reported TGI for "CC(=O)[CH-]C(=O)c1ccccc1.CC(=O)[CH-]C(=O)c1ccccc1.CC[O-].O=C1C=C([O-])C(=O)c2ccccc21.[Ti+4]" .
> 100 µM

I would be grateful if you could share the reported TGI for "CC(=O)NNc1nc(C)c(C(/C=C/c2ccc(Cl)cc2)=N/NC(=S)NN)s1" .
> 100 µM
